Source: PubChem BioAssay (NCI)

Test system: OVCAR-5 ovarian
experiment description: NCI tumour cell line growth inhibition, 48 h
measured property: TGI

Lookup: Could you share which TGI value was measured for "CC(C)=C[C@H]1CCC2(OCCO2)[C@]1(C)COCc1ccccc1" ?
Found: 82.1 µM

Lookup: Could you share which TGI value was measured for "Cc1cc2ncnn2cc1Nc1ncc2c(n1)n(C1CCOCC1)c(=O)n2C" ?
Found: > 100 µM

Lookup: Could you share which TGI value was measured for "O=C(c1cccs1)N1CCc2ccccc2C1" ?
Found: > 100 µM

----------
Tested on: SNB-19 CNS
experiment description: NCI tumour cell line growth inhibition, 48 h; in the data active = GI50 below about 0.43 µM; inactive = the rest
Tick one outcome: y for active, n for inactive

Some solved cases for reference:
>>> df
                                   compound  label_value
0  COc1ccc(-c2[nH]c3ccc(OC)cc3c2/C=C(\C#N)S(=O)(=O)c2ccccc2)cc1            n
1     NC(=O)c1cc(Cl)ccc1NC(=O)/C=C/c1ccccc1            n
2  CCc1nc2cc(F)c(/C=C/C(=O)NO)cc2c(=O)n1CCc1ccccc1            n
3  CC12OC(C(=O)C13CC3)C1C(=O)c3ccc4c(ccc5ccccc54)c3C(=O)C12 (stereo not given)            n

Attention now shifts to the item below.
Lookup: For "COc1ccc(/C=C/c2c(C(=O)/C=C/c3ccccc3)c(C)nc3ccccc23)cc1" , which call appears in the assay record?
Found: n

----------
Test system: SNB-75 CNS
experiment description: NCI tumour cell line growth inhibition, 48 h
measured property: TGI

// known answers, use as guide
>>> df
                                   compound     result
0  COC(=O)c1cc2c(cc1CC(Cc1ccc3c(c1)CCCC3)C(=O)OC)CCCC2 (stereo not drawn)   > 100 µM
1  CCOC(=O)c1ccc(N[C@@H]2c3cc4c(cc3C(c3cc(OC)c(O)c(OC)c3)[C@H]3C(=O)OCC32)OCO4)cc1O (stereo partly drawn)  > 23.2 µM
2             N#Cc1[nH]c(=O)n(-c2ccccc2)c1N    > 10 µM
3  CC1(C)OC(=O)N(c2ccccc2)C12C=Cc1cc([N+](=O)[O-])ccc1O2 (stereo not drawn)   > 100 µM
4  CCOC(=O)CCC(=O)C1c2cccc(O)c2C(=O)c2c(O)cc(C)cc21 (stereo not drawn)    1.76 µM
5  O=C(/C=C/c1ccc(Cl)c(Cl)c1)c1ccc2ccccc2c1   > 100 µM
6       O=C(CCc1nc(=S)[nH][nH]1)Nc1ccccc1Cl   > 100 µM
7           CC1CCCCNC1=S (stereo not drawn)    > 10 µM
8  Nc1nc(-c2ccccc2)cc(-c2ccc(OCc3ccccc3)cc2O)n1   > 100 µM
9   CN(C)CCNc1ccc(CO)c2oc3ccc(O)cc3c(=O)c12    47.1 µM

Lookup: Could you share which TGI value was measured for "COc1ccc(C[N+](C)(C)N)cc1OC" ?
Found: > 100 µM

Lookup: Could you share which TGI value was measured for "O=C1c2cccnc2-c2nc(-c3ccc(Cl)cc3)cc3c2c1nc1ccccc13" ?
Found: > 100 µM

----------
Tested on: SW-620 colon
experiment description: NCI tumour cell line growth inhibition, 48 h
measured property: TGI

molecule	TGI
Nc1ccc(Cc2c(N)[nH]c(=O)[nH]c2=O)cc1	> 100 µM
Cc1cc(NC(=S)SCc2ccc(F)cc2)c([N+](=O)[O-])cc1C	> 100 µM
COc1ccc(S(=O)(=O)c2ccccc2[N+](=O)[O-])cc1	> 100 µM
CCCN(CCC)C(=O)c1c([N+](=O)[O-])cc(C(F)(F)F)cc1[N+](=O)[O-]	84.3 µM
O=c1cc(N2CCCC2)[nH]c(=O)n1-c1cccc(Cl)c1	> 100 µM

Lookup: Could you share which TGI value was measured for "CN(C)CCCN=c1c2ccccc2n(O)c2ccccc12" ?
Found: > 100 µM

Lookup: Could you share which TGI value was measured for NNC(=S)N/N=C(/C(=O)Nc1ccc(Cl)c(Cl)c1)C(C1OC(=O)c2ccccc21)[N+](=O)[O-] (stereo unspecified) ?
Found: > 100 µM

Lookup: Could you share which TGI value was measured for "COCC[C@H]1CCC/C=C/[C@@H]2C[C@H](O)C[C@H]2[C@H](O)/C=C/C(=O)O1" ?
Found: 0.258 µM

Lookup: Could you share which TGI value was measured for "CC1(C)C(=O)/C(=C\c2cccnc2)C[C@]2(C)[C@H]3CC[C@@H]4[C@H]5[C@H](C(=O)/C=C/c6cccnc6)CC[C@]5(C(=O)O)CC[C@@]4(C)[C@]3(C)CC[C@@H]12" ?
Found: 10.3 µM

Lookup: Could you share which TGI value was measured for "COc1cc2c3c(n(CCCN)c(=O)c2cc1OC)-c1ccc(C#N)cc1C3=O" ?
Found: 30.6 µM

Lookup: Could you share which TGI value was measured for "O=C(Nc1ccccc1-c1nc2ccccc2[nH]c1=O)c1ccccc1" ?
Found: 73.7 µM
